The following compounds are shown together with reported pIC50 values.
Molecular target: Polyunsaturated fatty acid 5-lipoxygenase (Rattus norvegicus, UniProt P12527)
Sequence (P12527 whole entry): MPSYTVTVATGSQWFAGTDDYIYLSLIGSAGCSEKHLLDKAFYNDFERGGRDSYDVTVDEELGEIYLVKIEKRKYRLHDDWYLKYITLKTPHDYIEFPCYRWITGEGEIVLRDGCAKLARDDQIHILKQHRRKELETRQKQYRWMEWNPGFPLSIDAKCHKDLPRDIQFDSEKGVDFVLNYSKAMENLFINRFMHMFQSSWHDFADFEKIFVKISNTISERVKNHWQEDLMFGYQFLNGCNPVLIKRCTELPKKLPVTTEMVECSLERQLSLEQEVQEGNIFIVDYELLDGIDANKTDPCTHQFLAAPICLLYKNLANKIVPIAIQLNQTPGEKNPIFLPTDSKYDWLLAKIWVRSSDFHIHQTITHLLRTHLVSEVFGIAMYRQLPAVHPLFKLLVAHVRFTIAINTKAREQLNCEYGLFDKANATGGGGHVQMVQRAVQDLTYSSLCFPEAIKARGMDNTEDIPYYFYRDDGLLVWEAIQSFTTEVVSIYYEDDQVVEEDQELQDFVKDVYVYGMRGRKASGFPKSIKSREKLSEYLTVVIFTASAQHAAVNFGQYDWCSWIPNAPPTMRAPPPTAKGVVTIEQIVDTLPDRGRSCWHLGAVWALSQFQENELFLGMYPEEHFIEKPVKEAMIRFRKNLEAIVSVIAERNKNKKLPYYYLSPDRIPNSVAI
Assay: Compound was tested for the inhibition of 5-lipoxygenase (5-LPO) in rat basophilic leukemia (RBL) cells.
Type: cell-based, RBL-1
Hey, just a heads up that pIC50 is the negative log base 10 of the concentration in molar.

COC1(c2nccs2)CCc2ccc(OCc3ccc4ccccc4c3)cc21 (racemic); 6.10

Supply measured pIC50 of COC1(c2nccs2)CCc2ccc(OCc3ccc4ccccc4c3)cc21 (single isomer, unassigned; (+)) in your reply. 6.89

* * *

Molecular target: Polyunsaturated fatty acid 5-lipoxygenase (Homo sapiens)
Assay: Inhibition of 5-lipoxygenase in human whole blood.
propertyLabel: log10(IC50) (log10 of the value in µM)
A difference of one corresponds to tenfold IC50; all values are log10 with IC50 in µM.

Example entries and their recorded answers appear below.
CCC(OC)(c1cccc(OCc2cccc3ccccc23)c1)c1nccs1 (stereo unspecified); 0.68
COC1(c2nccs2)CCc2ccc(OCc3ccc4ccccc4c3)cc21 (racemic); -0.15
COC(C)(c1cccc(OCc2ccc3ccccc3c2)c1)c1nccs1 (stereo in doubt; 2p); -0.15

Supply measured log10(IC50) of CCC(O)(c1cccc(OCCCc2ccccc2)c1)c1nccs1 (stereo unspecified) in your reply. 1.04

Supply measured log10(IC50) of CCC(O)(c1cccc(OCc2ccc(Cl)c(Cl)c2)c1)c1nccs1 (stereo unspecified) in your reply. 0.04

Supply measured log10(IC50) of COC(c1cccc(OCc2ccc3ccccc3c2)c1)c1nccs1 (stereo unspecified) in your reply. 0.85

Supply measured log10(IC50) of CCCC(O)(c1cccc(OCc2ccc3ccccc3c2)c1)c1nccs1 (stereo unspecified) in your reply. 0.94

Supply measured log10(IC50) of CCC(OC)(c1cccc(OCc2ccc3ccccc3c2)c1)c1cscn1 (stereo unspecified) in your reply. -0.22

Supply measured log10(IC50) of COC(C)(c1cccc(OCc2ccc3ccccc3c2)c1)c1nccs1 (stereo unspecified) in your reply. -0.30

Supply measured log10(IC50) of COC1(c2nccs2)CCc2ccc(OCc3ccc4ccccc4c3)cc21 (single isomer, unassigned; (+)) in your reply. -0.30

Supply measured log10(IC50) of CCC(O)(c1cccc(OCC#Cc2ccccc2)c1)c1nccs1 (stereo unspecified) in your reply. 0.00

Supply measured log10(IC50) of CCC(OC)(c1cccc(OCc2ccc3ccccc3c2)c1)c1cncs1 (stereo unspecified) in your reply. 0.80

* * *

Molecular target: UniProt P48999
Assay: Inhibition of 5-lipoxygenase in mouse macrophages.
pIC50: −log10 of the molar value.
# cutoff 7 applies to pIC50; >= gives 1.0, < gives 0.0

Recorded results for 6 molecules are shown here.
COC(C)(c1cccc(OCc2ccc3ccccc3c2)c1)c1nccs1 (stereo not given); 1.0
CC(C)C(O)(c1cccc(OCc2ccc3ccccc3c2)c1)c1nccs1 (stereo not given); 0.0
CCC(O)(c1cccc(OC/C=C/c2ccccc2)c1)c1nccs1 (stereo not given); 1.0
COC1(c2nccs2)CCc2ccc(OCc3ccc4ccccc4c3)cc21 (single isomer, unassigned; (-)); 0.0
CCC(O)(c1cccc(OCC#Cc2ccccc2)c1)c1nccs1 (stereo not given); 1.0
COC(c1cccc(OCc2ccc3ccccc3c2)c1)c1nccs1 (stereo not given); 0.0

Quick check: does COC(C)(c1cccc(OCc2ccc3ccccc3c2)c1)c1nccs1 (stereo in doubt; 2o) have pIC50 greater than or equal to 7? 0.0

Quick check: does COC1(c2nccs2)CCc2ccc(OCc3ccc4ccccc4c3)cc21 (single isomer, unassigned; (+)) have pIC50 greater than or equal to 7? 1.0

Quick check: does COC1(c2nccs2)CCc2ccc(OCc3ccc4ccccc4c3)cc21 (racemic) have pIC50 greater than or equal to 7? 1.0

* * *

Target: Polyunsaturated fatty acid 5-lipoxygenase (Homo sapiens, UniProt P09917)
Sequence (P09917 whole entry): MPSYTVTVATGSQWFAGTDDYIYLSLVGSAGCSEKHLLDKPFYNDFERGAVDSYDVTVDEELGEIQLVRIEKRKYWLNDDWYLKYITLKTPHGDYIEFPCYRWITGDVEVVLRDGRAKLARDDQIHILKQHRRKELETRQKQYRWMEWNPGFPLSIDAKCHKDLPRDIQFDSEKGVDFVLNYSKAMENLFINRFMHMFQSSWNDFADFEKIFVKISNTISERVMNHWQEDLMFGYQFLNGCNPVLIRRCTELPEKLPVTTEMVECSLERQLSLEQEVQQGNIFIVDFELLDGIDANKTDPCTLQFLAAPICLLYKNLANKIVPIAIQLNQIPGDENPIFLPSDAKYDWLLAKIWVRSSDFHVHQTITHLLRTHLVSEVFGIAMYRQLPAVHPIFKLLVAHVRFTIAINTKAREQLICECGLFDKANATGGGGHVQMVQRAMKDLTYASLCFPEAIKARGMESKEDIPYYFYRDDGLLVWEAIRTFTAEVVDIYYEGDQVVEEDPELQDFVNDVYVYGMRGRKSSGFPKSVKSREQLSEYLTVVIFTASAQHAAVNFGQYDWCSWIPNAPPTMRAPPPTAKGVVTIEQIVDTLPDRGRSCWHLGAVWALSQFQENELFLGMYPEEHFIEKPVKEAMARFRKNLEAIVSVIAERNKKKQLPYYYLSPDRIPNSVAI
Experiment: Inhibition of 5-lipoxygenase in human whole blood.
The following compounds are shown together with reported pIC50 values.
Hey, just a heads up that pIC50 is the negative log base 10 of the concentration in molar.

Example entries and their recorded answers appear below.
CCC(O)(c1cccc(OC/C=C/c2ccccc2)c1)c1nccs1 (centres undefined); 6.10
CC(C)C(O)(c1cccc(OCc2ccc3ccccc3c2)c1)c1nccs1 (centres undefined); 4.40
CCC(OC)(c1cccc(OCc2ccc(F)c(F)c2)c1)c1nccs1 (centres undefined); 4.40

Supply measured pIC50 of CCC(O)(c1cccc(OCC#Cc2cccc(C)c2)c1)c1nccs1 (centres undefined) in your reply. 5.60

* * *

Target: Polyunsaturated fatty acid 5-lipoxygenase (Rattus norvegicus, UniProt P12527)
Assay: Compound was tested for the inhibition of 5-lipoxygenase (5-Lpo) in rat whole blood.
Assay type: tissue-based
propertyLabel: pIC50
Hey, just a heads up that pIC50 is the negative log base 10 of the concentration in molar.

COC(c1cccc(OCc2ccc3ccccc3c2)c1)c1nccs1 (stereo unspecified); 5.22
CCC(OC)(c1cccc(OCc2ccc3ccccc3c2)c1)c1nccs1 (stereo unspecified); 6.30
OC(c1cccc(OCc2ccc3ccccc3c2)c1)c1nccs1 (stereo unspecified); 4.52

Now let's try a different one.
Supply measured pIC50 of COC(C)(c1cccc(OCc2ccc3ccccc3c2)c1)c1nccs1 (stereo unspecified) in your reply. 6.10

* * *

Target: Polyunsaturated fatty acid 5-lipoxygenase (Mus musculus)
Sequence (P48999 whole entry): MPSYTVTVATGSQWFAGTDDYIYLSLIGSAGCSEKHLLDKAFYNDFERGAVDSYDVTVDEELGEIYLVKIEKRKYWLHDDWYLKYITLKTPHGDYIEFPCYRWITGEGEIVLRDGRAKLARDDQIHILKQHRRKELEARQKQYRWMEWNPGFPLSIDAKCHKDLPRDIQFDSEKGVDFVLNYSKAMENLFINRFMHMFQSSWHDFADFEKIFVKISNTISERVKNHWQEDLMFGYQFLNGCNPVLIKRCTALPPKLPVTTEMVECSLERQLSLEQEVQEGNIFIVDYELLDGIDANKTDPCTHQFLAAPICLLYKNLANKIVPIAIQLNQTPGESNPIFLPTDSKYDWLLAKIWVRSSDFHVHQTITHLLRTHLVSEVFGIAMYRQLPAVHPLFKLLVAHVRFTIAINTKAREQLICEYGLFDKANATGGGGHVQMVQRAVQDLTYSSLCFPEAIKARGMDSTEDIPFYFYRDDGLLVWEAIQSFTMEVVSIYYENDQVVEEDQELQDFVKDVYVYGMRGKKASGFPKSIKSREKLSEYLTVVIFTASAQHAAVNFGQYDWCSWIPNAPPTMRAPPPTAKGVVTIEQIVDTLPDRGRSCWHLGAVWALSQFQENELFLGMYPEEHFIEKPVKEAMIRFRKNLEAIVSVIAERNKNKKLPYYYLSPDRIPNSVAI
Assay: Inhibition of 5-lipoxygenase in mouse macrophages.
propertyLabel: pIC50
Hey, just a heads up that pIC50 is the negative log base 10 of the concentration in molar.

Supply measured pIC50 of COC(C)(c1cccc(OCc2ccc3ccccc3c2)c1)c1nccs1 (stereo in doubt; 2p) in your reply. 7.52

Supply measured pIC50 of CCC(OC)(c1cccc(OCc2ccc3ccccc3c2)c1)c1nccs1 (centres undefined) [ZM-211965] in your reply. 8.10

Supply measured pIC50 of CCC(OC)(c1cccc(OCc2ccc3ccccc3c2)c1)c1nc(C)cs1 (centres undefined) in your reply. 6.09

Supply measured pIC50 of CCC(OC)(c1cccc(OCc2ccc(F)c(F)c2)c1)c1nccs1 (centres undefined) in your reply. 6.10

* * *

Biological target: Polyunsaturated fatty acid 5-lipoxygenase (Homo sapiens)
Experiment: Inhibition of 5-lipoxygenase in human whole blood.
propertyLabel: IC50

Example entries and their recorded answers appear below.
c1ccc2cc(COc3ccc4c(c3)C(c3nccs3)CC4)ccc2c1 (centres undefined); > 40 µM
COC1CCc2ccc(OCc3ccc4ccccc4c3)cc21 (centres undefined); > 40 µM
Cc1cnc(C(C)(O)c2cccc(OCc3ccc4ccccc4c3)c2)s1 (centres undefined); ~40 µM
CCC(OC)(c1ccc(OCc2ccc3ccccc3c2)cc1)c1nccs1 (centres undefined); ~40 µM
COC1(c2nccs2)CCc2c(OCc3ccc4ccccc4c3)cccc21 (centres undefined); > 40 µM
COC(C)(c1cccc(OCc2ccc3ccccc3c2)c1)c1nccs1 (stereo in doubt; 2o); ~40 µM
COC1(c2nccs2)CCc2ccc(OCc3ccc4ccccc4c3)cc21 (single isomer, unassigned; (-)); > 40 µM
CCC(OC)(c1nccs1)c1ccccc1OCc1ccc2ccccc2c1 (centres undefined); > 40 µM

Now let's try a different one.
Supply measured IC50 of CCC(OC)(c1cccc(OCc2ccc3ccccc3c2)c1)c1nc(C)cs1 (centres undefined) in your reply. ~40 µM
